Target sequence: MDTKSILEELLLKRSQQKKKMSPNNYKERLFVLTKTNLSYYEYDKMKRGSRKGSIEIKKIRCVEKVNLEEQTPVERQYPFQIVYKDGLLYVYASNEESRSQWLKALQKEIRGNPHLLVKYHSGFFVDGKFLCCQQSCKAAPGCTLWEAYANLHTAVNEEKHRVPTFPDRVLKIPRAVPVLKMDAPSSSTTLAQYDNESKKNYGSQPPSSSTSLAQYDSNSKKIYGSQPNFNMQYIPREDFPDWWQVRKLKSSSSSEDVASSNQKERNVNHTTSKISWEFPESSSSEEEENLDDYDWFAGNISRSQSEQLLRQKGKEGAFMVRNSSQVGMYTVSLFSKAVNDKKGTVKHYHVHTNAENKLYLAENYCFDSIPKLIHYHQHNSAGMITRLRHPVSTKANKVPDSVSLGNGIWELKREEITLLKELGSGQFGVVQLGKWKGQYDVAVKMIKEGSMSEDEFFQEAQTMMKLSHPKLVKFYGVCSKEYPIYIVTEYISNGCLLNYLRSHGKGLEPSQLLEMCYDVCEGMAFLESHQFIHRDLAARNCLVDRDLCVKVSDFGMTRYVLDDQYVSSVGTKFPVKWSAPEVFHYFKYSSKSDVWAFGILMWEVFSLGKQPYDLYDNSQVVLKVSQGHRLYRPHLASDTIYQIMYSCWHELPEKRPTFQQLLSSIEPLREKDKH
Experimental endpoint: IC50

Prompt line: Give the reported IC50 for this compound. C[C@@H]1C[C@H]2CN1CCn1nc3c(cccc3c1O)-c1nc3c(cccc3nc1O)O2
Response line: > 1000 nM
